// provenance: ChEMBL document CHEMBL4406884

Target: UniProtKB O43526
Sequence (O43526 whole entry): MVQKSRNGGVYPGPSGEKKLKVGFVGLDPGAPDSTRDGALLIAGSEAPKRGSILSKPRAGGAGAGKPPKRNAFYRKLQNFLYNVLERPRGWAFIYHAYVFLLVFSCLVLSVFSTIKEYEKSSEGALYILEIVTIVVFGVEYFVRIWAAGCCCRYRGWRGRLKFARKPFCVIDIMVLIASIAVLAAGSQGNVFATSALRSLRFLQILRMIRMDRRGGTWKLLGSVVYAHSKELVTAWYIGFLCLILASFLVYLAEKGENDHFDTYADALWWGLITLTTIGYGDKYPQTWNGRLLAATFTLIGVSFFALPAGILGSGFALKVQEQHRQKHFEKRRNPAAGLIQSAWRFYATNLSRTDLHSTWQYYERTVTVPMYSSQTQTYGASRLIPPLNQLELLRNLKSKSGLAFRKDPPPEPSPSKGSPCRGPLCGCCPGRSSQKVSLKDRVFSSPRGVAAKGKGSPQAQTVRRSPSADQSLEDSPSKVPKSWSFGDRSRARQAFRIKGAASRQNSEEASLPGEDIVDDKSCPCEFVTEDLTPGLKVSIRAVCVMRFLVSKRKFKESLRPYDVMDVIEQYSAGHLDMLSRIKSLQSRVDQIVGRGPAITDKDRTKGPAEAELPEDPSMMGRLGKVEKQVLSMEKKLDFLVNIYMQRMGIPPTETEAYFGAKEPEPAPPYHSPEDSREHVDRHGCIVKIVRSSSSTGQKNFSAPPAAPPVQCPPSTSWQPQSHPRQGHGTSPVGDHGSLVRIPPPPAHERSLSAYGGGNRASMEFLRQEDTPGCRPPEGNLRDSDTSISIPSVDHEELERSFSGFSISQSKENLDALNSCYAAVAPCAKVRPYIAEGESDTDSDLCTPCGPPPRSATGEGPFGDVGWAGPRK
Test: Inhibition of Kv7.2 in human HEK293 cells incubated for 1 hr by thallium flux assay
Mark true (1) only when IC50 stays strictly below 500 nM. Values equal to the cut-off are false (0).

O=C1c2ccccc2C(Cc2ccnc(C(F)(F)F)c2)(Cc2ccnc(C(F)(F)F)c2)c2ccccc21    false (0)

input: Below 500 nM on IC50? Entry `O=C1c2ccccc2C(Cc2c(F)cncc2F)(Cc2c(F)cncc2F)c2ccccc21`
output: true (1)

input: Record: `O=C1c2ccccc2C(Cc2ccnnc2)(Cc2ccnnc2)c2ccccc21`
output: false (0)

input: Record: `O=C1c2ccccc2C(Cc2ccnc(F)c2)(Cc2ccnc(F)c2)c2ccccc21`
output: true (1)

input: Record: `O=C1c2ccccc2C(Cc2ccncc2)(Cc2ccncc2)c2ccccc21`
output: true (1)

input: Record: `O=C1c2ccccc2C(Cc2ccnnc2)(Cc2c(F)cncc2F)c2ccccc21`
output: true (1)

input: Record: `Cc1cc(CC2(Cc3ccnc(C)c3)c3ccccc3C(=O)c3ccccc32)ccn1`
output: false (0)
